# Test system: aryl hydrocarbon receptor (Cavia porcellus)
# assayComment: stimulation of AhR transformation and DNA binding – biochemical, radiometric EMSA, guinea pig liver cytosol, counter-screen for AhR activator project, late-stage follow-up (AID 624402)
# assayConditions: AhR-DRE EMSA, run 1, at 10 µM
The source made the active and inactive calls.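 The calls were made as follows: active = binding altered by at least 10% in every panel; inactive = the rest.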
Outcomes: y for active, n for inactive

* Cc1cccc(C)c1NC(=O)c1ccc(C(=O)Nc2c(C)cccc2C)nc1 | n
* CCOC(=O)c1c(C)nn(-c2cc(Cl)ccc2Cl)c1C | n
* Cc1cc(Br)cc(C)c1Nc1ccnc(Nc2ccc(C#N)cc2)n1 | n
* COc1ccc(Nc2cc(Cl)nc(N)n2)cc1OC | n
* CN(Cc1cc(-c2cccs2)n[nH]1)Cc1coc2ccccc2c1=O | y
* COc1ccc(O)c(-c2cc(-c3cccs3)[nH]n2)c1 | n
* Nc1nc(Cl)cc(Nc2ccccc2F)n1 | y
* Cc1cc(Nc2ccc(F)cc2)nc(N)n1 | n
* COc1ccc(NC(=O)c2ccc(C(=O)Nc3ccc(OC)cc3OC)nc2)c(OC)c1 | n
* CCOc1ccccc1NC(=O)c1ccc(C(=O)Nc2ccccc2OCC)nc1 | n
* O=C(CSc1nc2ccccc2s1)Nc1ccccn1 | y
* Cc1ccc(NC(=O)c2ccc(C(=O)Nc3ccc(C)cc3C)nc2)c(C)c1 | y
* Cc1cccc(NC(=O)c2cc(-c3ccc(C)cc3O)n[nH]2)c1 | n
* Cc1ccc(O)c(-c2cc(-c3ccccc3Cl)[nH]n2)c1 | y
* Cc1ccc(-c2cc(-c3cccc(F)c3)n[nH]2)c(O)c1 | y
* O=C(CSc1nc2ccccc2s1)Nc1ccc(Cl)cn1 | y
* Cc1ccc(-c2cc(-c3ccc(F)cc3)n[nH]2)c(O)c1 | y
* Cc1csc(SCC(=O)Nc2ccccn2)n1 | n
* Cc1ccc(-c2cc(-c3ccc(Cl)cc3)n[nH]2)c(O)c1 | y
* Nc1nc(Cl)cc(Nc2ccc(Oc3ccccc3)cc2)n1 | n
* COc1ccc(Cl)cc1NC(=O)c1ccc(C(=O)Nc2cc(Cl)ccc2OC)nc1 | n
* COc1ccc(-c2cc(-c3ccc(C)cc3O)[nH]n2)cc1 | n
* COc1ccc(Nc2cc(Cl)nc(N)n2)cc1 | n
* Cc1ccnc(NC(=O)CSc2nc3ccccc3s2)c1 | y
* O=C(CSc1nc(-c2ccc(F)cc2)cs1)Nc1ccccn1 | n

The origin of these recorded values is PubChem BioAssay AID624402.
